Test system: A549 cells
protocol: Cell cycle assay in A549 cells
Assay type: cell-based, human
condition-label: A549 cells, 50 nM, 24 hours; relative to the untreated control cells in that phase
Reported values of % cells in cell cycle phase: subG1 for individual entries
Supply the numeric figure in %, leaving out any unit text.

substance	target-system	observable	value-observed
338637 (antisense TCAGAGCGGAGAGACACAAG; all 2'-MOE, all phosphorothioate, methylation of C not given here) [compound 338637]	A549 cells	% cells in cell cycle phase: subG1	86
338836 (antisense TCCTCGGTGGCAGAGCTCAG; all 2'-MOE, all phosphorothioate, methylation of C not given here) [compound 338836]	A549 cells	% cells in cell cycle phase: subG1	232
338769 (antisense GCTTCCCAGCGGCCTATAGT; all 2'-MOE, all phosphorothioate, methylation of C not given here) [compound 338769]	A549 cells	% cells in cell cycle phase: subG1	82

Next:
Entry 340350 (antisense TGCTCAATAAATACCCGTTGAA; all 2'-MOE, all phosphorothioate, methylation of C not given here) [compound 340350] has what % cells in cell cycle phase: subG1? 158

====

Test system: T47D cells
protocol: Caspase-3 activity assay (apoptosis) in T47D cells
condition-label: T47D cells, 200 nM oligomeric compound, 48 hours; experiment of Table 12
In the oligonucleotide strings, read from the 5' end, every base follows the letter of its sugar. An asterisk marks phosphorothioate; unmarked linkages are phosphodiester. Other units and linkages are bracketed, terminal groups are in braces. A string of capitals states the bases alone. e = 2'-O-(2-methoxyethyl) (MOE); [5mC] = 5-methylcytosine; d = 2'-deoxy (DNA)
Note to self: use Met only for Fold Increase over UTC (caspase-3 activity, apoptosis) readings below 1 fold; a reading exactly at 1 fold still gets Not met.

Completed entries (count: 6):
substance	target-system	group-label
328658 (eA*eG*eA*eA*eT*dG*dA*dG*dT*dT*dG*dA*d[5mC]*dA*dT*eA*e[5mC]*e[5mC]*eA*eA; antisense) [compound 328658]	T47D cells	Not met
328373 (eG*eG*eG*eA*eA*dG*dG*dA*dT*dT*dG*d[5mC]*d[5mC]*dT*dA*eG*e[5mC]*eA*eG*eT; antisense) [compound 328373]	T47D cells	Met
328430 (antisense e[5mC]*e[5mC]*eG*eG*e[5mC]*dT*dA*dT*dT*dG*dA*dG*dT*dT*dA*eT*eG*eT*eA*e[5mC]) [compound 328430]	T47D cells	Not met
328419 (antisense eT*eG*eT*eT*eG*d[5mC]*d[5mC]*dT*dA*dA*d[5mC]*dG*dA*dA*d[5mC]*eA*e[5mC]*eA*eG*eA) [compound 328419]	T47D cells	Met
328401 (antisense eG*e[5mC]*e[5mC]*e[5mC]*eT*d[5mC]*dG*dA*d[5mC]*dG*dA*dA*dA*dA*d[5mC]*e[5mC]*eG*eA*e[5mC]*eT) [compound 328401]	T47D cells	Met
328379 (e[5mC]*eT*eG*eA*e[5mC]*dT*dG*dA*dG*dA*d[5mC]*dT*dG*dT*dT*e[5mC]*eA*e[5mC]*eA*eG; antisense) [compound 328379]	T47D cells	Not met

Please find the next substance below.
# check: Fold Increase over UTC (caspase-3 activity, apoptosis) < 1 fold for 328641 (eT*eG*e[5mC]*eT*eG*dA*d[5mC]*dT*dG*d[5mC]*dT*d[5mC]*dG*d[5mC]*d[5mC]*e[5mC]*eT*eT*eG*e[5mC]; antisense) [compound 328641] Not met

====

System: B16-F10 cells
protocol: Cell cycle assay in B16-F10 cells
Assay type: cell-based, mouse
condition-label: 150 nM, 48 hours, relative to untreated control
In the oligonucleotide strings, read from the 5' end, every base follows the letter of its sugar. An asterisk marks phosphorothioate; unmarked linkages are phosphodiester. Other units and linkages are bracketed, terminal groups are in braces. A string of capitals states the bases alone. e = 2'-O-(2-methoxyethyl) (MOE); [5mC] = 5-methylcytosine; d = 2'-deoxy (DNA)
observable: % cells in cell cycle phase G2/M

Record excerpt, results attached:
substance	observable	value-observed
25691 (antisense eG*e[5mC]*e[5mC]*eA*eA*dG*dG*d[5mC]*dG*dT*dG*dA*d[5mC]*dA*dT*eG*eA*eT*eA*eT) [compound 25691]	% cells in cell cycle phase G2/M	99%
327933 (antisense eA*eA*eG*eG*eG*eA*eT*eT*e[5mC]*e[5mC]*eT*eG*eG*eG*eA*eA*eA*eA*e[5mC]*eT*eG*eG*eA*e[5mC]) [compound 327933]	% cells in cell cycle phase G2/M	116%
327905 (antisense e[5mC]*eA*eG*eA*e[5mC]*eT*e[5mC]*e[5mC]*eG*eG*eT*eG*eG*eA*eA*eT*eG*eA*eA*eG*eG*eA) [compound 327905]	% cells in cell cycle phase G2/M	106%
328403 (antisense eA*eG*eG*e[5mC]*e[5mC]*dT*dA*dT*dT*d[5mC]*d[5mC]*dT*dG*dT*dA*eG*e[5mC]*eA*eA*eA) [compound 328403]	% cells in cell cycle phase G2/M	99%
327902 (antisense eG*eG*e[5mC]*eT*eG*eT*e[5mC]*eA*eA*eT*eT*e[5mC]*eA*eT*eA*eG*eG*eT*e[5mC]*eA*eG) [compound 327902]	% cells in cell cycle phase G2/M	98%

Entry 328759 (antisense eG*eA*eG*eG*eG*dA*dT*dT*dG*dT*dA*dT*dG*dA*dA*e[5mC]*eA*eT*e[5mC]*eT) [compound 328759] has what % cells in cell cycle phase G2/M? 110%

====

System: Glut4
protocol: Glut4 mRNA expression in adipocytes (real-time PCR)
Type: cell-based, human
condition-label: differentiating adipocytes transfected with oligomeric compound; Table 75
In the oligonucleotide strings, read from the 5' end, every base follows the letter of its sugar. An asterisk marks phosphorothioate; unmarked linkages are phosphodiester. Other units and linkages are bracketed, terminal groups are in braces. A string of capitals states the bases alone. e = 2'-O-(2-methoxyethyl) (MOE); [5mC] = 5-methylcytosine
observable: GLUT4 mRNA

Record excerpt, results attached:
substance	GLUT4 mRNA
341791 (antisense GCUUCCAGUCGAGGAUGUUUACA; all 2'-MOE, all phosphorothioate, methylation of C and T or U not given here) [compound 341791]	47 percentage of untreated control (UTC)
346914 (AUCUGCACUGUCAGCACUUUA; all 2'-MOE, all phosphorothioate, methylation of C and T or U not given here) [compound 346914]	16 percentage of untreated control (UTC)
341800 (antisense AAGCCCAAAAGGAGAAUUCUUUG; all 2'-MOE, all phosphorothioate, methylation of C and T or U not given here) [compound 341800]	28 percentage of untreated control (UTC)
346906 (ACAGGAUUGAGGGGGGGCCCU; all 2'-MOE, all phosphorothioate, methylation of C and T or U not given here) [compound 346906]	70 percentage of untreated control (UTC)

Next:
Entry 327968 (antisense e[5mC]*eA*eA*eT*eG*e[5mC]*eA*eA*e[5mC]*eA*eG*e[5mC]*eA*eA*eT*eG*e[5mC]*eA*e[5mC]) [compound 327968] has what GLUT4 mRNA? 85 percentage of untreated control (UTC)

====

Test system: HuVECs
protocol: Endothelial tube formation assay in HuVECs
condition-label: 75 nM oligomeric compound, Table 58
In the oligonucleotide strings, read from the 5' end, every base follows the letter of its sugar. An asterisk marks phosphorothioate; unmarked linkages are phosphodiester. Other units and linkages are bracketed, terminal groups are in braces. A string of capitals states the bases alone. e = 2'-O-(2-methoxyethyl) (MOE); [5mC] = 5-methylcytosine
observable: % Activity Relative to UTC (tube formation) (%)
Supply the numeric figure in %, leaving out any unit text.

Record excerpt, results attached:
substance	value-observed
327926 (antisense eA*e[5mC]*eT*eA*eT*eG*e[5mC]*eA*eA*e[5mC]*e[5mC]*eT*eA*e[5mC]*eT*eA*e[5mC]*e[5mC]*eT*e[5mC]*eT) [compound 327926]	96.3
327929 (antisense eG*eA*eA*e[5mC]*eA*eG*eA*eT*eA*eG*eT*e[5mC]*eT*eA*eA*eA*e[5mC]*eA*e[5mC]*eT*eG*eG*eG) [compound 327929]	51.9
327942 (antisense e[5mC]*e[5mC]*eA*eT*e[5mC]*eT*eT*eT*eA*e[5mC]*e[5mC]*eA*eG*eA*e[5mC]*eA*eG*eT*eG*eT*eT) [compound 327942]	74.1
327933 (antisense eA*eA*eG*eG*eG*eA*eT*eT*e[5mC]*e[5mC]*eT*eG*eG*eG*eA*eA*eA*eA*e[5mC]*eT*eG*eG*eA*e[5mC]) [compound 327933]	59.3
327931 (antisense eA*eA*e[5mC]*e[5mC]*eA*eT*eA*e[5mC]*eA*eA*e[5mC]*e[5mC]*eT*eA*e[5mC]*eT*eA*e[5mC]*e[5mC]*eT*e[5mC]*eA) [compound 327931]	103.7
327934 (antisense eG*eG*eT*eA*e[5mC]*eA*eA*eT*e[5mC]*eA*eA*e[5mC]*eG*eG*eT*e[5mC]*eG*eA*eT*eG*eG*eT) [compound 327934]	51.9
327927 (antisense eT*eG*eT*eA*eA*eA*e[5mC]*e[5mC]*eA*eT*eG*eA*eT*eG*eT*eG*e[5mC]*eT*eG*e[5mC]*eT*eA) [compound 327927]	59.3
327928 (antisense eA*eA*e[5mC]*e[5mC]*eG*eA*eT*eT*eT*e[5mC]*eA*eG*eA*eT*eG*eG*eT*eG*e[5mC]*eT*eA*eG) [compound 327928]	37.0

Entry 327925 (antisense eT*eA*eG*e[5mC]*eT*eG*eG*eT*eT*eG*eA*eA*eG*eG*eG*eG*eA*e[5mC]*e[5mC]*eA*eA) [compound 327925] has what % Activity Relative to UTC (tube formation)? 44.4

Entry 327932 (antisense eA*eG*eG*e[5mC]*eA*eT*eA*eG*eG*eA*eT*eG*eA*e[5mC]*eA*eA*eA*eG*eG*eG*eA*eA) [compound 327932] has what % Activity Relative to UTC (tube formation)? 51.9

Entry 327946 (antisense eA*eG*eG*e[5mC]*eG*eA*eA*eG*eG*eA*eT*eG*eA*e[5mC]*eA*eA*eA*eG*eG*eG*eA*eA) [compound 327946] has what % Activity Relative to UTC (tube formation)? 51.9
